Th-T fluorescence, mean of three wells values for the compounds below.
ASSAYED SYSTEM: Aβ42 (Homo sapiens)
PROTOCOL SUMMARY: Th-T (thioflavin-T) assay of Aβ42 aggregation
Assay type: biochemical
STATED CONDITIONS: Supplementary Fig. 47 source data; measurement M56 of time course
QUANTITY MEASURED: Th-T fluorescence, mean of three wells

| COMPOUND | MEASURED VALUE |
| --- | --- |
| C=C1CC[C@H]2[C@]3(C)C[C@@H](C=C(C)C)O[C@H]3CC[C@]2(C)[C@@H]1Cc1c(O)c(C)c(C)oc1=O | 2.698 |
| C=C1CC[C@H]2[C@]3(C)C[C@@H](C=C(C)C)O[C@H]3CC[C@]2(C)[C@@H]1Cc1c(OC)oc(CO)c(C)c1=O | 3.63 |
| C=C1CCC2C(C)(CCC=C(C)C)C(=O)CCC2(C)C1Cc1c(O)c(C)c(C)oc1=O (centres unmarked) | 2.204 |
| C=C1CCC2C(C)(CC(=O)C=C(C)C)C(O)CCC2(C)C1Cc1c(OC)oc(C)c(C)c1=O (centres unmarked) | 3.762 |
| C=C1CC[C@H]2[C@]3(C)C[C@H](C=C(C)C)O[C@H]3CC[C@]2(C)[C@@H]1Cc1c(O)c(C)c(C)oc1=O | 3.106 |

----------
ASSAYED SYSTEM: Aβ42 (Homo sapiens, UniProt P05067)
Sequence (P05067 672-713): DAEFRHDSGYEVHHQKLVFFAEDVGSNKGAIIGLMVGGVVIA
PROTOCOL SUMMARY: Th-T (thioflavin-T) assay of Aβ42 aggregation
Format: biochemical
STATED CONDITIONS: column suffix _10; reading M9
Tag: True if measured Th-T assay signal, mean of three wells (Fig. 7a) is not below 0.5, False if it is.

| COMPOUND | DISCRETE LABEL |
| --- | --- |
| C=C1CCC2C(C)(CCC=C(C)C)C(O)CCC2(C)C1Cc1c(OC)oc(CO)c(C(=O)OC)c1=O (centres unmarked) [Compound 13] | False |
| C=C1CCC2C(C)(CCC=C(C)C)C(O)CCC2(C)C1Cc1c(OC)oc(C)c(C(=O)OC)c1=O (centres unmarked) [Compound 14] | False |
| C=C1CCC2C(C)(CCC=C(C)C)C(O)CCC2(C)C1Cc1c(OC)oc(CO)c(C)c1=O (centres unmarked) [Compound 12] | False |
| C=C1CC[C@@H]2[C@](C)(CC[C@H]3O[C@H](C=C(C)C)C[C@@]23C)[C@@H]1Cc1c(OC)oc(CO)c(C)c1=O [Compound 20] | True |
| C=C1CC[C@@H]2[C@](C)(CC[C@H]3O[C@H](C=C(C)C)C[C@@]23C)[C@@H]1Cc1c(OC)oc(CO)c(C(=O)OC)c1=O [Compound 21] | False |

----------
ASSAYED SYSTEM: Aβ42 (Homo sapiens)
PROTOCOL SUMMARY: Th-T (thioflavin-T) assay of Aβ42 aggregation
Type: biochemical
STATED CONDITIONS: compound at 10; reading M55 of time course
This listing pairs compounds with measured Th-T fluorescence, mean of three wells.
QUANTITY MEASURED: Th-T fluorescence, mean of three wells

| COMPOUND | MEASURED VALUE |
| --- | --- |
| C=C1CCC2C(C)(CCC=C(C)C)C(O)CCC2(C)C1Cc1c(OC)oc(CO)c(C(=O)OC)c1=O (centres unmarked) | 1.541 |
| C=C1CCC2C(C)(CCC=C(C)C)C(O)CCC2(C)C1Cc1c(OC)oc(CO)c(C)c1=O (centres unmarked) | 3.439 |
| C=C1CC[C@@H]2[C@](C)(CC[C@H]3O[C@H](C=C(C)C)C[C@@]23C)[C@@H]1Cc1c(OC)oc(CO)c(C(=O)OC)c1=O | 0.2969 |
| C=C1CC[C@@H]2[C@](C)(CC[C@H]3O[C@H](C=C(C)C)C[C@@]23C)[C@@H]1Cc1c(OC)oc(CO)c(C)c1=O | 3.479 |
| C=C1CCC2C(C)(CCC=C(C)C)C(O)CCC2(C)C1Cc1c(OC)oc(C)c(C(=O)OC)c1=O (centres unmarked) | 2.573 |
